Cited source for all entries: patent US9790169B2

target: human IDO1 (Homo sapiens, UniProt P14902); experiment: Assessment of human IDO-1 inhibitory activity in HEK cells (human IDO1/HEK293 cells, kynurenine read-out with Ehrlich reagent, absorbance 490 nm); assay type: cell-based; design: expressed in transfected cells; settings: HEK Human IDO-1 cellular assay
Sequence (P14902 whole entry): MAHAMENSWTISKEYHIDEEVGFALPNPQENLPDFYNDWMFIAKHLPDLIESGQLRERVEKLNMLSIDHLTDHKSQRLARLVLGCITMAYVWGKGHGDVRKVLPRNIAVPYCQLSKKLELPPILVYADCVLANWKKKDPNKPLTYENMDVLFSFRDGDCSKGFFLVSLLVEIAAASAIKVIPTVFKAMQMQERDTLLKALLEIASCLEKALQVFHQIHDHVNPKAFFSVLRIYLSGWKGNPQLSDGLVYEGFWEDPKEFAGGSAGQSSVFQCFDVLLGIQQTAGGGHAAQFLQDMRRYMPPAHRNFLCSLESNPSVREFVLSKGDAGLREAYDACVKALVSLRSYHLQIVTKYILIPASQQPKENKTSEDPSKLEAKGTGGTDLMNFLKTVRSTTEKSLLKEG
pIC50: −log10 of the molar value.

compound: CCC(CC(=O)O)c1ccc(N(CC(C)C)C2CCCCC2)c(Nc2ccc(C)cc2)c1 (single isomer, unassigned)
pIC50: > 8.30

compound: C[C@@H]1CN(c2ccc(C(C)(C)CC(=O)O)cc2Nc2ccc(F)cc2)C[C@H](C)O1
pIC50: > 7.30

compound: CCC(CC(=O)O)c1ccc(N(CC(C)C)CC(C)(C)O)c(Nc2ccc3nc(C)sc3c2)c1 (racemic)
pIC50: < 7.30

compound: CC[C@H](CC(=O)O)c1ccc(N2CCOC[C@@H]2C(C)C)c(Nc2ccc(Cl)cc2)c1 (single isomer, unassigned)
pIC50: > 8.30

compound: C[C@@H]1CN(c2ccc(C(C)(C)CC(=O)O)cc2Nc2ccc(C#N)cc2)C[C@H](C)O1
pIC50: > 7.30

compound: CCC(CC(=O)O)c1ccc(N2CCC[C@H]2C(C)(C)O)c(NC(=O)Nc2cc(C)on2)c1 (single isomer, unassigned)
pIC50: < 7.30

compound: CCOc1ccc(Nc2cc(C(CC)CC(=O)O)ccc2N2CCOC[C@H]2C(C)C)cc1 (single isomer, unassigned)
pIC50: > 7.30

compound: CCCN(CC1CC1)c1ccc(C(CC)CC(=O)O)cc1Nc1ccc2nc(C)sc2c1 (single isomer, unassigned) [Example 658]
pIC50: > 7.30

compound: CCN(c1ccc(C(C)(C)CC(=O)O)cc1Nc1ccc2nc(C)sc2c1)C1CCOCC1
pIC50: > 7.30

compound: CCC(CC(=O)O)c1cc(F)c(N(CC(C)C)CC(C)C)c(NC(=O)Cc2ccc(F)cc2F)c1 (racemic) [Example 1082]
pIC50: > 8.30

compound: COCC(CC(=O)O)c1ccc(N(CC(C)C)CC(C)C)c(NC(=O)Nc2ccc(Cl)cc2F)c1 (racemic) [Example 994]
pIC50: > 8.30

compound: CC[C@@H](CC(=O)O)c1ccc(N(CC)C2CCOCC2)c(Nc2nc3cc(C)nn3cc2F)c1 (single isomer, unassigned)
pIC50: < 7.30

====

target: UniProt:P14902; experiment: Assessment of human IDO-1 inhibitory activity in HEK cells (human IDO1/HEK293 cells, kynurenine read-out with Ehrlich reagent, absorbance 490 nm); format: cell-based; set-up: expressed in transfected cells; conditions: HEK Human IDO-1 cellular assay
Items are presented alongside their recorded IC50.

molecule: CCCOc1ncc(Nc2cc(C(CC)CC(=O)O)ccc2N(CC(C)C)C2CCCCC2)cn1 (single isomer, unassigned) [Example 647]
IC50: < 0.005 µM

molecule: CCOc1ccc(NC(=O)Nc2cc([C@H](CC)CC(=O)O)ccc2N(CC(C)C)C2CCS(=O)(=O)CC2)cc1 (single isomer, unassigned) [Example 212]
IC50: > 0.05 µM

molecule: COCC(CC(=O)O)c1ccc(N(CC2CC2)C2CCOCC2)c(Nc2ccc(Cl)cc2)c1 (single isomer, unassigned) [Example 679]
IC50: < 0.005 µM

molecule: CCOc1ccc(NC(=O)Nc2cc(C(COC)CC(=O)O)ccc2N(CC(C)C)C2CCCCC2)c(F)c1 (single isomer, unassigned) [Example 1232]
IC50: < 0.05 µM

molecule: CCc1cnc(Nc2cc([C@H](CC)CC(=O)O)ccc2N(CC(C)(C)O)C2CCCCC2)nc1 (single isomer, unassigned) [Example 241]
IC50: < 0.05 µM

molecule: COCC(CC(=O)O)c1ccc(N(CC(C)C)C2CCOCC2)c(NC(=O)Nc2ccc(Cl)cc2F)c1 (single isomer, unassigned) [Example 1210]
IC50: < 0.05 µM

molecule: CCN(c1ccc(C(C)CC(=O)O)cc1NC(=O)Nc1ccc(C)cc1)C1CCOCC1 (single isomer, unassigned) [Example 641]
IC50: > 0.05 µM

molecule: CCN(c1ccc([C@@H](COC)CC(=O)O)cc1Nc1cnc(OC)nc1)C1CCOCC1 (single isomer, unassigned) [Example 350]
IC50: < 0.05 µM

molecule: CCC(CC(=O)O)c1ccc(N2C[C@@H](C)O[C@@H](C)C2)c(Nc2ccc(C#N)cc2)c1 (single isomer, unassigned) [Example 764]
IC50: < 0.05 µM

molecule: COCC(CC(=O)O)c1cc(F)c(N(CC(C)C)CC(C)C)c(NC(=O)Nc2cncnc2)c1 (single isomer, unassigned) [Example 1196]
IC50: > 0.05 µM

molecule: CCC(CC(=O)O)c1ccc(N(CC(C)C)C2CCCCC2)c(Nc2ccc(C#N)cc2)c1 (single isomer, unassigned) [Example 314]
IC50: < 0.005 µM

molecule: CCC(CC(=O)O)c1cc(F)c(N(CC(C)C)CC(C)C)c(Nc2ccc(C#N)cc2)c1 (single isomer, unassigned) [Example 107]
IC50: < 0.005 µM

molecule: CCOc1ccc(CC(=O)Nc2cc(C(COC)CC(=O)O)ccc2N(CC(C)C)C2CCCCC2)cc1 (single isomer, unassigned) [Example 1241]
IC50: < 0.05 µM

molecule: CC(CC(=O)O)c1ccc(N2C[C@@H](C)O[C@@H](C)C2)c(Nc2ccc(F)cc2)c1 (single isomer, unassigned) [Example 738]
IC50: > 0.05 µM

molecule: CCOc1ccc(NC(=O)Nc2cc(C(CC(=O)O)C3CC3)ccc2N(CC(C)C)C2CCOCC2)cc1 (single isomer, unassigned) [Example 1205 Enantiomer 1]
IC50: < 0.05 µM

molecule: CCCN(c1ccc([C@@H](COC)CC(=O)O)cc1Nc1cnc(OCC2CC2)nc1)C1CCOCC1 (single isomer, unassigned) [Example 563]
IC50: < 0.05 µM

molecule: CCC(CC(=O)O)c1ccc(N(CC(C)C)C2CCCCC2)c(NC(=O)c2ccc(Oc3ccccc3)cc2)c1 (racemic) [Example 1074]
IC50: > 0.05 µM

====

target: human IDO1 (Homo sapiens); assay: Assessment of human IDO-1 inhibitory activity in HEK cells (human IDO1/HEK293 cells, kynurenine read-out with Ehrlich reagent, absorbance 490 nm); assay type: cell-based; set-up: expressed in transfected cells; details: HEK Human IDO-1 cellular assay

molecule: CC[C@H](CC(=O)O)c1ccc(N(CC)C2CCOCC2)c(NC(=O)Nc2ccc3c(c2)CS(=O)(=O)C3)c1 (single isomer, unassigned) [Example 533]
IC50: > 50 nM
--
molecule: CC(CC(=O)O)c1ccc(N2CCC[C@H]2C(C)(C)O)c(Nc2ccc(F)cc2)c1 (single isomer, unassigned) [Example 798]
IC50: > 50 nM
--
molecule: CCC(CC(=O)O)c1cc(F)c(N(CC(C)C)CC(C)C)c(NC(=O)Cc2ccc(F)cc2F)c1 (single isomer, unassigned) [Example 1093 E2]
IC50: < 5 nM
--
molecule: COCC(CC(=O)O)c1ccc(N(CC(C)C)C2CCOCC2)c(NC(=O)Nc2ccc(C)cc2)c1 (single isomer, unassigned) [Example 1209]
IC50: > 50 nM
--
molecule: CC[C@H](CC(=O)O)c1ccc(N(CC(C)C)C2CCS(=O)(=O)CC2)c(NC(=O)Nc2cc(C)on2)c1 (single isomer, unassigned) [Example 213]
IC50: > 50 nM
--
molecule: CC[C@@H](CC(=O)O)c1ccc(N(CC(C)C)C2CCS(=O)(=O)CC2)c(Nc2ccc3sc(C)nc3c2)c1 (single isomer, unassigned) [Example 219]
IC50: < 5 nM
--
molecule: CCC(CC(=O)O)c1ccc(N(CC(C)C)CC(C)C)c(NC(=O)Cc2ccc(C#N)cc2)c1 (racemic) [Example 950]
IC50: < 5 nM
--
molecule: CCc1cnc(Nc2cc([C@@H](CC)CC(=O)O)ccc2N(CC(C)(C)O)C2CCCCC2)nc1 (single isomer, unassigned) [Example 230]
IC50: < 50 nM
--
molecule: CCC(CC(=O)O)c1ccc(N(CC(C)C)C2CCCCC2)c(Nc2ccc(Cl)c(OCC(F)F)c2)c1 (single isomer, unassigned) [Example 643]
IC50: < 5 nM
--
molecule: CCOc1ncc(Nc2cc([C@H](CC)CC(=O)NS(C)(=O)=O)ccc2N(CC)C2CCOCC2)cn1 [Example 1078]
IC50: < 50 nM
--
molecule: CCOc1ccc(Nc2cc(C(CC)CC(=O)O)cc(F)c2N(CC(C)C)CC(C)C)cc1 (single isomer, unassigned) [Example 97]
IC50: < 50 nM
--
molecule: CCOc1ncc(Nc2cc(C(CC)CC(=O)O)ccc2N2C[C@@H](C)O[C@@H](C)C2)cn1 (single isomer, unassigned) [Example 756]
IC50: > 50 nM
--
molecule: CCOc1ccc(Nc2cc([C@@H](CC)CC(=O)O)ccc2N(CC)C2CCOCC2)cc1 (single isomer, unassigned) [Example 474]
IC50: < 5 nM
--
molecule: CCC(CC(=O)O)c1ccc(N(CC(C)C)C2CCCCC2)c(Nc2ccc(Cl)cc2F)c1 (single isomer, unassigned) [Example 307]
IC50: < 50 nM
--
molecule: CCOc1ccc(Nc2cc([C@@H](CC)CC(=O)O)ccc2N2CCOC[C@@H]2C(C)C)cc1 (single isomer, unassigned) [Example 82]
IC50: < 50 nM
--
molecule: CCOc1ccc(NC(=O)Nc2cc(C(CC)CC(=O)O)c(F)cc2N(CC(C)C)CC(C)C)c(F)c1 (single isomer, unassigned) [Example 1138]
IC50: < 5 nM
--
molecule: CCC(CC(=O)O)c1ccc(N(CC(C)C)C2CCCCC2)c(NC(=O)Cc2ccc(Cl)cc2F)c1 (single isomer, unassigned) [Example 1096 E1]
IC50: < 5 nM
--
molecule: CCC(CC(=O)O)c1ccc(N2CCC[C@H]2C(C)(C)F)c(Nc2ccc3c(c2)OC(F)(F)O3)c1 (single isomer, unassigned) [Example 790]
IC50: < 50 nM
